# EXPERIMENTAL_PROTOCOL: Bioavailability in dogs by oral route (plasma rifaximin by LC-MS/MS)
# Assay type: in vivo, Beagle female dogs
# CONDITION_PARAMETERS: female, Beagle, dog, plasma, po, 100 mg/kg, single oral administration of 100 mg/kg by capsules to female dogs
PARAMETER: Tmax (h)
Give bare numbers, in h.

Read the entry CO[C@H]1/C=C/O[C@@]2(C)Oc3c(C)c(O)c4c(O)c(c5c(nc6cc(C)ccn65)c4c3C2=O)NC(=O)/C(C)=C\C=C\[C@H](C)[C@H](O)[C@@H](C)[C@@H](O)[C@@H](C)[C@H](OC(C)=O)[C@@H]1C [rifaximin α, rifaximin] and write its reported Tmax.
9.5
